Values were extracted from BindingDB's records for doi:10.1016/j.chembiol.2015.10.013.

# measurement-target: Bromodomain-containing protein 4 (Homo sapiens)
# measurement-protocol: BRD4 Fluorescence Polarization (FP)
pIC50: −log10 of the molar value.
pIC50 reference

| structure-string | rel | pIC50 |
| --- | --- | --- |
| COc1ccc(CCc2nc3c(C)c(-c4c(C)noc4C)c(C)cc3n2CCN2CCOCC2)cc1 | < | 3.92 |
| CCCOc1ccc(CCc2nc3cc(-c4c(C)noc4C)ccc3n2CCN2CCOCC2)cc1 | = | 4.74 |

---

# measurement-target: Bromodomain-containing protein 4 (Homo sapiens)
# measurement-protocol: ITC
pKd: −log10 of the molar value.

| compound | measurement-target | pKd |
| --- | --- | --- |
| CCCOc1ccc(CCc2nc3cc(-c4c(C)noc4C)ccc3n2CCN2CCOCC2)cc1 [PF-CBP1] | Bromodomain-containing protein 4 (Homo sapiens) | < 4.70 |
